What GHS category was measured for each of the following?
assay: GHS categories as the set defines them, by LD50: 1 up to 5, 2 up to 50, 3 up to 300, 4 up to 2000, 5 above 2000 mg/kg; settings: rat; in vivo; po
Numbers only.

Examples with answers:
Molecule: CCOC(=O)C(Br)CC (stereo not given)
Measured Value: 4
//
Molecule: CS/C(=N\O)C(=O)N(C)C
Measured Value: 5
//
Molecule: CCCCCCC(=O)OCC(CC)(COC(=O)CCCCCC)COC(=O)CCCCCC
Measured Value: 5
//
Molecule: CCCCCCCCCC(=O)Oc1ccc(C(=O)O)cc1
Measured Value: 5
//
Molecule: Cc1onc(-c2ccccc2)c1C(=O)N[C@@H]1C(=O)N2[C@@H]1SC(C)(C)[C@@H]2C(=O)O
Measured Value: 5

For every record below, what is its GHS category?
1. Nc1c(Oc2ccccc2)cc(O)c2c1C(=O)c1ccccc1C2=O
2. CN(C/C=C/C#CC(C)(C)C)Cc1cccc2ccccc12
3. CCC=CCCCCCCCCCCCCCCOCC
4. C=CC(=C)C
5. CN(C)CC(=O)O
6. COc1ccc(Br)cc1
7. OCCOc1ccc(OCCO)cc1

Reply text:
[5, 5, 5, 5, 4, 4, 5]

For every record below, what is its GHS category?
1. CN1C(C(=O)Nc2ccccn2)=C(Nc2ccccn2)c2sc(Cl)cc2S1(=O)=O
2. COC(=O)CC(C(C)=O)C(=O)OC (stereo not given)

Reply text:
1. 2
2. 5

For every record below, what is its GHS category?
1. Cc1cccc(NC(=O)c2cc(C)[nH]n2)c1
2. Cc1ccc(C(=O)OCCCl)cc1N=Nc1c(O)c(C(=O)Nc2cc(C)c(NC(=O)c3cc4ccccc4c(N=Nc4cc(C(=O)OCCCl)ccc4C)c3O)cc2C)cc2ccccc12
3. CN(C(=O)CNCP(=O)(O)O)S(C)(=O)=O
4. CC(C)=CCN(CC=C(C)C)CCC(C)(C#N)c1cccc2ccccc12 (stereo not given)

Reply text:
5
5
2
4

For every record below, what is its GHS category?
1. CCOC(=O)C1OC1C(=O)NC(CC(C)C)C(=O)NCCC(C)C (stereo not given)
2. CCOC(=O)C(=O)Nc1cc(OCCOC)ncn1

Reply text:
5
4

====

test: GHS categories as the set defines them, by LD50: 1 up to 5, 2 up to 50, 3 up to 300, 4 up to 2000, 5 above 2000 mg/kg; settings: rat; in vivo; po
Outcome Measure: GHS category
One number for each entry.

Examples with answers:
Compound: CCC(=O)CCC1C(C)=CCCC1(C)C (stereo unspecified)
GHS category: 5
--
Compound: CC#CCn1c(Br)nc2c1c(=O)[nH]c(=O)n2C
GHS category: 4
--
Compound: C/C=C(\C)C(=O)OCC/C=C\CC
GHS category: 5

For every record below, what is its GHS category?
1. CSC(=O)c1c(C(F)F)nc(C(F)(F)F)c(C(=O)SC)c1CC(C)C
2. O=C(O)c1ccccc1N=Cc1ccccc1
3. CCCCCCCCCCCC(=O)OCC(C)(C)C=NCC1(C)CC(N=CC(C)(C)COC(=O)CCCCCCCCCCC)CC(C)(C)C1 (stereo unspecified)

Reply text:
1: 5; 2: 4; 3: 5

====

assay: rat acute oral toxicity; conditions: in vivo
Could you please mark 1 for values of LD50 below 1000 mg/kg and 0 for values at or above it?

Inquiry: Is 1000 mg/kg strictly greater than the molecule's reported LD50? molecule: CCCS
Reply text: 0

Inquiry: CCc1cccc(CC)c1N , same question.
Reply text: 0

Inquiry: CC(C)CCCCCCCCCCOP(OCCCCCCCCCCC(C)C)OCCCCCCCCCCC(C)C , same question.
Reply text: 0

Inquiry: CC(=O)C(Cl)C(=O)N(C)C (centres undefined) , same question.
Reply text: 1

====

What GHS category was measured for each of the following?
experiment: GHS categories as the set defines them, by LD50: 1 up to 5, 2 up to 50, 3 up to 300, 4 up to 2000, 5 above 2000 mg/kg; settings: rat; in vivo; po

Examples with answers:
Compound: CC1COC(Cn2cncn2)(c2cc3cc(Cl)cc(Cl)c3o2)O1 (configuration not stated)
Outcome Measure: GHS category
Measured Value: 4
//
Compound: NCCCN(CCO)CCO
Outcome Measure: GHS category
Measured Value: 5
//
Compound: CC1NC(=S)C(C(O)O)C(O)C1C (configuration not stated)
Outcome Measure: GHS category
Measured Value: 5

For every record below, what is its GHS category?
1. CCC[Si](OCC)(OCC)OCC
2. CC(C)=CCOC1=C(C(=O)Nc2ccccn2)N(C)S(=O)(=O)c2cc(Cl)sc21

Reply text:
1. 5
2. 2

For every record below, what is its GHS category?
1. Cn1nnnc1SCCCC(=O)NC1CCCCC1
2. CCC(=O)N[C@H]1CCc2nc(N)sc2C1

Reply text:
1: 4; 2: 5

====

assay: rat acute oral toxicity; details: in vivo
What LD50 was measured for each of the following?
Answers are plain numbers, in mg/kg.

Compound: OCCCCCCO
Outcome Measure: LD50
Measured Value: 3000
--
Compound: CCCCSP(=O)(SCCCC)SCCCC
Outcome Measure: LD50
Measured Value: 150

Inquiry: What value of LD50 has been recorded for this entry: CCS(=O)CCSP(=O)(OC)OC (stereo not drawn)
Reply text: 48

====

experiment: rat acute oral toxicity; conditions: in vivo
Outcome Measure: log10 of LD50 (log10 of the value in mg/kg)
Kindly note that the scale is log10 and the underlying LD50 is in mg/kg.

Examples with answers:
Compound: CCCN(CC1CC1)c1c([N+](=O)[O-])cc(C(F)(F)F)cc1[N+](=O)[O-]
log10 of LD50: 3.26
--
Compound: O=C(O)C(F)(OC(F)(F)C(F)(F)C(F)(F)F)C(F)(F)F (stereo unspecified)
log10 of LD50: 3.24
--
Compound: Oc1cccc(O)c1
log10 of LD50: 2.48
--
Compound: O=C1C(Cl)=C(Cl)C(=O)C(Cl)=C1Cl
log10 of LD50: 3.60
--
Compound: CCCCOC(=O)c1ccccc1C(=O)OCCCC
log10 of LD50: 3.80

For every record below, what is its log10 of LD50?
1. ClC(Cl)(Cl)Cl
2. C#CC(C)(C)O
3. Oc1cc(Cl)ccc1Cl

Reply text:
[3.37, 3.15, 2.76]

For every record below, what is its log10 of LD50?
1. Nc1ccccc1C(F)(F)F
2. CCCCCCC(CO)CCCC (stereo unspecified)

Reply text:
3.27
4.11

For every record below, what is its log10 of LD50?
1. COc1cc(CNC(=O)CCCC/C=C/C(C)C)ccc1O
2. O=[N+]([O-])C(Br)(CO)CO
3. CCOC(=O)c1ccc(O)cc1

Reply text:
1: 2.17; 2: 2.26; 3: 3.63

For every record below, what is its log10 of LD50?
1. CC(C)(c1ccc(O)cc1)c1cccc(C(C)(C)c2ccc(O)cc2)c1
2. CCCC(C)(COC(N)=O)COC(N)=O
3. C=CCBr

Reply text:
1. 3.74
2. 2.90
3. 2.08

====

assay: rat acute oral toxicity; details: in vivo
What LD50 was measured for each of the following?
Answers are plain numbers, in mg/kg.

Examples with answers:
Compound: Clc1ccc(Cl)cc1
Endpoint Unit: mg/kg
LD50: 500

Compound: ClCC1CO1 (stereo not drawn)
Endpoint Unit: mg/kg
LD50: 65

Compound: COC(=O)CC(=O)CC(=O)OC
Endpoint Unit: mg/kg
LD50: 4480

Compound: NC=O
Endpoint Unit: mg/kg
LD50: 5580

For every record below, what is its LD50?
1. CCCCC=O
2. c1ccc2[nH]c(-c3cscn3)nc2c1
3. CCCCCCCCCc1ccc(OCCOCCO)cc1
4. O=[N+]([O-])c1ccc(Oc2ccc(Cl)cc2Cl)cc1
5. Nc1ccccc1N
6. Cc1ccc(NC(=O)N(C)C)cc1Cl

Reply text:
1: 4580; 2: 2080; 3: 1310; 4: 2410; 5: 510; 6: 5800

For every record below, what is its LD50?
1. CCOc1ccc(NC(N)=O)cc1
2. O=C1OC(O)C(C(Cl)Cl)=C1Cl (stereo not drawn)
3. CCCOCC(C)OCC(C)O (stereo not drawn)
4. CON(C)C(=O)Nc1ccc(Cl)c(Cl)c1
5. N#CCC#N
6. Cc1cccc(C)c1N
7. CC(C)(C)C(O)C(Oc1ccc(Cl)cc1)n1cncn1 (stereo not drawn)

Reply text:
1900
128
1500
1150
14
840
689

For every record below, what is its LD50?
1. O=Cc1ccccc1
2. CCCSP(=O)(OCC)Oc1ccc(Br)cc1Cl (stereo not drawn)
3. CC/C(C)=N/O[Si](C)(O/N=C(\C)CC)O/N=C(\C)CC
4. COc1ccc(C(=CC(=O)N2CCOCC2)c2ccc(Cl)cc2)cc1OC
5. CCC(C)=NO[Si](ON=C(C)CC)(ON=C(C)CC)ON=C(C)CC
6. CC=Cc1ccc2c(c1)OCO2

Reply text:
1300
358
2450
3900
2450
1300

For every record below, what is its LD50?
1. CN(C)C(=O)C(c1ccccc1)c1ccccc1
2. CC1(C)C(C(=O)OC(C#N)c2cccc(Oc3ccccc3)c2)C1(C)C (stereo not drawn)
3. O=c1oc2ccccc2c(O)c1C1CC(c2ccc(-c3ccc(Br)cc3)cc2)Cc2ccccc21 (stereo not drawn)
4. O=C(O)c1ccccc1-c1c2cc(I)c(=O)c(I)c-2oc2c(I)c(O)c(I)cc12
5. C=CC(=O)OCCCC

Reply text:
[685, 66.7, 0.16, 1840, 900]

For every record below, what is its LD50?
1. CC(O)C(=O)O (stereo not drawn)
2. CC1(C)OC[C@@H]2O[C@@]3(C(=O)O)OC(C)(C)O[C@H]3[C@@H]2O1
3. CCCCOCCOC(C)=O
4. CNS(=O)(=O)c1cc(OC)c(N)cc1OC
5. CCCCC(CC)COP(Oc1ccccc1)Oc1ccccc1 (stereo not drawn)
6. C=CCN=C=S
7. Sc1ccccc1
8. CCCCC(CC)C(=O)O (stereo not drawn)

Reply text:
1. 3540
2. 18000
3. 1880
4. 815
5. 3840
6. 112
7. 46
8. 2040

For every record below, what is its LD50?
1. Cc1cccc(N)c1C
2. CS(=O)(=O)O
3. CN(C)C(=O)Nc1ccc(Cl)c(Cl)c1
4. NCCO
5. ClC(Cl)=C(Cl)C(Cl)=C(Cl)Cl

Reply text:
1. 930
2. 200
3. 437
4. 1720
5. 82

For every record below, what is its LD50?
1. CCNS(=O)(=O)C(F)(F)C(F)(F)C(F)(F)C(F)(F)C(F)(F)C(F)(F)C(F)(F)C(F)(F)F
2. Cc1ccc(S(N)(=O)=O)cc1
3. C=C(Cl)Cl
4. ClC1=C(Cl)[C@]2(Cl)[C@H]3[C@H]([C@@H]4C=C[C@H]3C4)[C@@]1(Cl)C2(Cl)Cl (racemic)
5. O=[N+]([O-])OCC(CO[N+](=O)[O-])O[N+](=O)[O-]
6. CC(C)(C)N
7. ClCCCBr

Reply text:
507
2330
80
39
105
44
930
